The origin of these recorded values is patent US20160130327A1.

measured target: revertant virus (AD169 CMV with the pentameric gH complex restored)
protocol text: cell-based or functional assay
Exercise: for every item that follows, state its recorded Neutralization in ARPE-19 cells EC50.
Answer format reminder: number followed by unit.

Task item: Item under review: 276.10 (antibody, V domains shown, rabbit hybridoma mAb (not the humanized version); also called clone 276.10) VH: QSLEESGGDLVQPEGSLTLTCTASGFSFSGSYYMCWVRQAPGTGLEWIACIDGDLSGSAYYANWAKGRFTISGTSSTTVTLQVTSLTAADTATYFCAREGPVGVGSIYLGFDLWGPGTLVTISS VL: ELDLTQTPASVEVPVGGTVTIKCQASHNINTYLSWYQQKPGQPPKLLIYRASDLASGVSSRFSGSGSGTQFTLTISGVECADAATYYCQQGFNSLNVENVFGGGTEVVVK . Reported Neutralization in ARPE-19 cells EC50?
Reply: 0.01 µg/mL

Task item: Request the reported Neutralization in ARPE-19 cells EC50 associated with 316.2 (antibody, V domains shown, rabbit hybridoma mAb; also called clone 316.2) VH: QSVKESEGRLVTPGTPLTLTCTASGFSLSSYHMIWVRQAPGKGLEWIGYINNNDNPYYATWAKGRFTISRTSTTVALKITSPTTKDTATYFCARAAGNYYVGALNLWGPGTLVTISS VL: ELVLTQTPASVEVAVGGTVTIKCQASQTIGNLLGWYQQKPGRPPKLLIYDASTLASGVPSRFKGSGSATEFTLTIRGVQCDDAATYYCQQGYMITNVENAFGGGTEVVVK
Reply: 0.02 µg/mL
